System: UACC-257 melanoma
Assay: NCI tumour cell line growth inhibition, 48 h
readout kind: TGI (µM)

compound=C=C1C(=O)O[C@H]2[C@H]1CC/C(Cn1cc(-c3ccccc3)nn1)=C\CC[C@@]1(C)O[C@@H]21 result_units=µM measurement_qualifier== readout_value=10.5
compound=N=C(N)CCCCCCCCC(=N)N result_units=µM measurement_qualifier=> readout_value=100
compound="CCN(CC)CCOc1ccc(/C=C2\\CC3C4CC=C5C[C@@H](N6CCCC6)CC[C@]5(C)C4CC[C@]3(C)[C@H]2O)cc1OC (stereo not given in full)" result_units=µM measurement_qualifier== readout_value=14.9
compound=c1ccc(CCN(Cc2nc3ccccc3[nH]2)Cc2nc3ccccc3[nH]2)cc1 result_units=µM measurement_qualifier== readout_value=32.5
compound=C[C@]12CCC(=O)C(O)=C1CC[C@@H]1[C@@H]2CC[C@]2(C)C(=O)CC[C@@H]12 result_units=µM measurement_qualifier=> readout_value=100
